# METHOD: NCI Yeast Anticancer Drug Screen. Data for the mlh1 rad18 strain (AID 175)
# MEASUREMENT_PARAMETERS: S. cerevisiae mlh1 rad18 strain growth inhibition; at 50.0 µM; active compounds read high
The panel holds about 79,000 compounds, 15% with a hit somewhere; the sample as a whole holds those more often.
MEASURED_QUANTITY: growth inhibition (%)
Reply with just the number (in %).

{"columns": ["COMPOUND", "growth inhibition [%]"],
 "data": [
  ["S=C=[N][Sn]([N]=C=S)([c]1ccccc1)[c]1ccccc1.c1ccc2nc(-c3ccc4ccccc4n3)ccc2c1", 77.5],
  ["CC1C(C(=O)c2ccc(-c3ccccc3)cc2)N1C(C)(C)C (stereo not given)", -11.8],
  ["CCOC(=O)C(Cc1ccc(N(CCCl)CCCl)cc1)NC(=O)CNC(C)=O (stereo not given)", 10.3],
  ["NC(=O)/C=C/c1ccc([As]=O)cc1 (stereo not given)", 99],
  ["O=C(c1ccc2ccccc2c1)N1CC1", 63.2]
]}

For C[C@H]1CC(=O)C[C@@H]2CC[C@@H]3[C@H](CC[C@]4(C)C(OC(=O)c5cccc6c(=O)c7ccccc7[nH]c56)CC[C@@H]34)[C@]21C (stereo not given in full) the compound record lists growth inhibition as 40.9

For "CCCCP(=O)(CCCC)CCCC.CCCCP(=O)(CCCC)CCCC.CCCCP(=O)(CCCC)CCCC.CCCCP(=O)(CCCC)CCCC.[Ce+3].[O-][Cl+3]([O-])([O-])O" the compound record lists growth inhibition as 42.4

For "CSC(SC)P(=O)(Oc1ccccc1)Oc1ccccc1" the compound record lists growth inhibition as 10.6

For "O=C(Nc1cccs1)c1c(O)[nH]c(=S)[nH]c1=O" the compound record lists growth inhibition as 4.5

For "[Cl][Pt+2][Cl].[NH-]c1ccc([N+](=O)[O-])cc1[NH-]" the compound record lists growth inhibition as 70.5
